Where do these numbers come from? They come from patent US20230242651A1.

Some binders, each annotated with its measured pKd.
measurement target: T1, human interleukin-23 receptor (IL23R) (human, UniProt Q5VWK5 24-355, limits assumed)
T1 construct: also called human IL23R
T1 sequence (looked up): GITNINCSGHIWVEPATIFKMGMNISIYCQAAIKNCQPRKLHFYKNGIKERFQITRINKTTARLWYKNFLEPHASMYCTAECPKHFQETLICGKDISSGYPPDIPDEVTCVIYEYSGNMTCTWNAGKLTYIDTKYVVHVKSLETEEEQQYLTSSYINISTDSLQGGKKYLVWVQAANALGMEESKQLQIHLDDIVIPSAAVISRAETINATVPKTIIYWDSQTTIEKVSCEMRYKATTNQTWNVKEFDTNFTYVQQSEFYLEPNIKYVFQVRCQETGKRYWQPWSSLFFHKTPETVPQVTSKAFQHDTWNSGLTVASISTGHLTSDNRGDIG
assay protocol: SPR, scFv (summary table)
Give only the number. pKd is defined as minus log10 of concentration in molar units.

Here is how some binders turned out for pKd.
* Vκ2/VH4 consensus λ-capped, human IL23R specific scFv (scFv, scFv VL-linker-VH, made in E. coli; also called Vκ2VH4 capped) scFv: DIVMTQSPLSLPVTPGEPASISCQASENIYSFLAWYLQKPGQSPQLLIYSASKLAAGVPDRFSGSGSGTDFTLKISRVEAEDVGVYYCQQTNRYSNPDIYNVFGGGTKLTVLGGGGGSGGGGSGGGGSGGGGSQVQLQESGPGLVKPSETLSLTCTVSGIDFNSNYYMCWIRQPPGKGLEWIGCIYVGSHVNTYYANWAKGRVTISVDTSKNQFSLKLSSVTAADTAVYYCATSGSSVLYFKFWGQGTLVTVSS | 10.32
* Vκ3/VH1A consensus (uncapped), human IL23R specific scFv (scFv, scFv VL-linker-VH, made in E. coli; Vκ framework IV (uncapped, full consensus); also called Vκ3VH1A uncapped) scFv: DIVLTQSPATLSLSPGERATLSCQASENIYSFLAWYQQKPGQAPRLLIYSASKLAAGVPARFSGSGSGTDFTLTISSLEPEDFAVYYCQQTNRYSNPDIYNVFGQGTKVEIKRGGGGSGGGGSGGGGSGGGGSQVQLVQSGAEVKKPGSSVKVSCKASGIDFNSNYYMCWVRQAPGQGLEWMGCIYVGSHVNTYYANWAKGRVTITADESTSTAYMELSSLRSEDTAVYYCATSGSSVLYFKFWGQGTLVTVSS | 9.53

With those in mind, consider the next binder.
INPUT: Supply pKd value. Item: Vκ1/VH3 consensus λ-capped, human IL23R specific scFv (scFv, scFv VL-linker-VH, made in E. coli; also called Vκ1VH3 capped) scFv: DIQMTQSPSSLSASVGDRVTITCQASENIYSFLAWYQQKPGKAPKLLIYSASKLAAGVPSRFSGSGSGTDFTLTISSLQPEDFATYYCQQTNRYSNPDIYNVFGGGTKLTVLGGGGGSGGGGSGGGGSGGGGSEVQLVESGGGLVQPGGSLRLSCAASGIDFNSNYYMCWVRQAPGKGLEWVSCIYVGSHVNTYYANWAKGRFTISRDNSKNTLYLQMNSLRAEDTAVYYCATSGSSVLYFKFWGQGTLVTVSS
OUTPUT: 10.86
